# Tested on: NRG-mice bearing LNCaP tumors
# test.description: Biodistribution (and PET/SPECT imaging) in NRG-mice bearing LNCaP tumors
# Type: in vivo
# experimental.conditions: 3 h p.i., Avg
*1 amine or outer side, *2 acyl side, *3 side chain or, on linkers, in order; H or OH if unused. Where a SMILES comes first, the peptide text is derived from it. [ ]: non-standard residue; d: D form. The star is where a group is joined. ξ: configuration not given here. ξLys(Nα-CO-ξAad) = O=C(O)CCCC(NC(=O)NC(CCCCN*)C(=O)O)C(=O)O; Butanoyl(4-(4-NO2Ph)) = O=C(CCCc1ccc([N+](=O)[O-])cc1)*; DOTA = O=C(O)CN1CCN(CC(=O)O)CCN(CC(=O)*)CCN(CC(=O)O)CC1; Butanoyl(4-(4-MeO-phenyl)) = COc1ccc(CCCC(=O)*)cc1; ξAla(9-anthryl) = NC(Cc1c2ccccc2cc2ccccc12)C(=O)O; X1 = O=C(C1CCC(CN[*:1])CC1)[*:2]; ξK = NCCCCC(N)C(=O)O
assay.metric: Biodistribution: Intestine (% ID/g)
// units = % ID/g; emit number, no label

For the compound COc1ccc(CCCC(=O)NCC(=O)NC(CCCCNC(=O)CN2CCN(CC(=O)[O-])CCN(CC(=O)[O-])CCN(CC(=O)[O-])CC2)C(=O)NCC(=O)NCC2CCC(C(=O)NC(Cc3c4ccccc4cc4ccccc34)C(=O)NCCCCC(NC(=O)NC(CCCC(=O)O)C(=O)O)C(=O)O)CC2)cc1.[68Ga+3] (stereo not drawn) [^68Ga-CCZ02009] ({Butanoyl(4-(4-MeO-phenyl))}-G[ξK](DOTA)G[X1][ξAla(9-anthryl)]-{ξLys(Nα-CO-ξAad)}) , what Biodistribution: Intestine is on record?
1.53

Which Biodistribution: Intestine reading was recorded for the compound O=C([O-])CN1CCN(CC(=O)[O-])CCN(CC(=O)NCCCCC(NC(=O)CNC(=O)CCCc2ccc([N+](=O)[O-])cc2)C(=O)NCC(=O)NCC2CCC(C(=O)NC(Cc3c4ccccc4cc4ccccc34)C(=O)NCCCCC(NC(=O)NC(CCCC(=O)O)C(=O)O)C(=O)O)CC2)CCN(CC(=O)[O-])CC1.[177Lu+3] (stereo not drawn) [^177Lu-CCZ02017] ({Butanoyl(4-(4-NO2Ph))}-G[ξK](DOTA)G[X1][ξAla(9-anthryl)]-{ξLys(Nα-CO-ξAad)}) ?
1.03

Requested field: Biodistribution: Intestine. Item: O=C([O-])CN1CCN(CC(=O)[O-])CCN(CC(=O)NCCCCC(NC(=O)CNC(=O)CCCc2ccc([N+](=O)[O-])cc2)C(=O)NCC(=O)NCC2CCC(C(=O)NC(Cc3c4ccccc4cc4ccccc34)C(=O)NCCCCC(NC(=O)NC(CCCC(=O)O)C(=O)O)C(=O)O)CC2)CCN(CC(=O)[O-])CC1.[225Ac+3] (stereo not drawn) [^225Ac-CCZ02017] ({Butanoyl(4-(4-NO2Ph))}-G[ξK](DOTA)G[X1][ξAla(9-anthryl)]-{ξLys(Nα-CO-ξAad)})
1.02
